Measured TGI by item
- System: K-562 leukemia
- PROTOCOL_NOTES: NCI tumour cell line growth inhibition, 48 h
MEASUREMENT_KIND: TGI

| MOLECULE | RESULT |
| --- | --- |
| N/C(=N\N=C/c1cc([N+](=O)[O-])cc([N+](=O)[O-])c1O)NO | > 91.2 µM |
| CN(C)c1ccc2c(c1)OC(N)=C(C#N)C2c1ccc2c(c1)CCCN2C (stereo not given) | > 100 µM |
| CCN(CC)C(=S)SSCCO | 18 µM |
| Nc1nc(-c2ccccc2)cc(-c2cc(Cl)ccc2O)n1 | > 100 µM |
| O=C1C2C(C(=O)N1CC[Se][Se]CCN1C(=O)C3C(C1=O)[C@H]1C=C[C@@H]3C1)[C@H]1C=C[C@@H]2C1 (stereo not given in full) | > 38.5 µM |
| O=C(O)Cn1ccc(=O)c2c([N+](=O)[O-])cccc21 | > 100 µM |
| CC1=NN(C(=O)c2ccc(C)cc2)C(=O)C1N=Nc1ccccc1C(=O)O (stereo not given) | > 100 µM |
| O=CC(O)C(O)C(OC1OC(CO)C(O)C(O)C1O)C(O)CO (stereo not given) (tested in a mixture with another compound) | 98.7 µM |
| CCOC(=O)C1=C(C)N(CC(C)C)C2(O)C(OC)CC(=O)C3C(=O)N(c4ccccc4)C(=O)C132 (stereo not given) | > 100 µM |
| O=c1c2ccccc2n2cnc3ccc(NCCNCCO)c1c32 | > 51.1 µM |

* * *

- Tested on: A549 NSCLC
- PROTOCOL_NOTES: NCI tumour cell line growth inhibition, 48 h
Where a SMILES comes first, the peptide text is derived from it. The star is where a group is joined. Boc = CC(C)(C)OC(=O)*; tBu = CC(C)(C)*
MEASUREMENT_KIND: TGI

| COMPOUND | MEASUREMENT_KIND | RESULT |
| --- | --- | --- |
| O=C(O)Cc1ccc(Oc2nc3ccccc3nc2-c2ccccc2)cc1 | TGI | > 100 µM |
| CCOC(=O)c1cc2cc(OCc3ccccc3)ccc2[nH]1 | TGI | > 100 µM |
| CCOC(=O)[C@@H]1C[C@@H]1c1ccc(O)c(O)c1 | TGI | > 100 µM |
| Cc1ccc(NC2=CC(=O)C(=O)c3ccccc32)c(C)c1 | TGI | 4.34 µM |
| COC1(c2ccccc2)NC(=S)NN=C1c1ccccc1 (stereo unspecified) | TGI | > 100 µM |
| Cc1ccc(-c2nc(C(Cl)Cl)nc3cc(C)nn23)cc1 | TGI | 6.21 µM |
| COC(=O)c1ccccc1/C=C1\Cc2ccc3ccccc3c2C1C (stereo unspecified) | TGI | > 100 µM |
| N=C(N)c1ccc(N=Nc2c(O)ccc3cc(O)ccc23)cc1 | TGI | > 100 µM |
| CC(C)c1cc(C(C)C)c(Cl)c(Cl)c1O (tested in a mixture with another compound) | TGI | > 100 µM |
| CC(=O)Oc1ccc(/C=C/C(=O)NCCOC(=O)/C=C/c2ccc(OC(C)=O)c(OC(C)=O)c2)cc1OC(C)=O | TGI | > 100 µM |
| COC(=O)c1ccc2c(c1)C(=O)c1c-2n(CCCCl)c(=O)c2cc(OC)c(OC)cc12 | TGI | > 100 µM |
| NC(N)=N/N=C\c1c(-c2ccccc2)nc2sccn12 | TGI | 31.8 µM |
| O=c1[nH]c(=O)n(C2CC(O)C(O)C(CO)O2)cc1F (stereo unspecified) | TGI | > 100 µM |
| Oc1ccc(-c2[nH]c3ccccc3c2-c2nc3ccccc3o2)cc1 | TGI | 11.4 µM |
| CO[C@]12C[C@@H](CNC(=O)c3cc(Br)c[nH]3)O[C@H]1NC(=O)N2 | TGI | > 100 µM |
| CCN(CC)CCCNc1c2ccc(Cl)cc2nc2ccc(OC)cc12 | TGI | 5.83 µM |
| CN(c1ccc(NC(=O)NCCN2CCOCC2)cc1)c1ccnc(Nc2ccc(CS(C)(=O)=O)cc2)n1 | TGI | > 25 µM |
| Clc1cccc2[nH]ncc12 | TGI | > 100 µM |
| Brc1ccc(-c2nc(-c3ccc(Br)cc3)n(-c3ccccc3)n2)cc1 | TGI | > 100 µM |
| COc1ccc(C(=O)/C=C/c2ccc(OCc3ccccc3)c(OC)c2)cc1OC | TGI | 29.6 µM |
| O=C1C2C(C(=O)N1CC[Se][Se]CCN1C(=O)C3C(C1=O)[C@H]1C=C[C@@H]3C1)[C@H]1C=C[C@@H]2C1 (stereo partly specified) | TGI | 4.72 µM |
| CCOP(=O)(/C=C/n1cnc2c(=O)n(C(C)=O)c(N)nc21)OCC | TGI | > 100 µM |
| COc1cccc(/C=C2/S/C(=N/Nc3nc(C)c(C(C)=O)s3)NC2=O)c1O | TGI | > 100 µM |
| CC(C)C/C(=N\NC(=O)c1ccncc1)c1cc(Cl)ccc1O | TGI | > 42.6 µM |
| COc1cc2c3c(n(CCCN4CCSCC4)c(=O)c2cc1OC)-c1cc2c(cc1C3=O)OCO2 | TGI | > 100 µM |
| CC(=O)N1c2ccccc2[C@H]2CCc3c([nH]c4ccccc34)[C@H]21 | TGI | 67.3 µM |
| COc1ccc2c3c(c(C(=O)O)oc13)C(CCC(=O)O)CC2 (stereo unspecified) | TGI | > 100 µM |
| O/N=C1\CSc2ccccc2C1 | TGI | > 100 µM |
| C=C1C(=O)O[C@@H]2[C@H]1C[C@H](I)[C@@]1(C)CC[C@H](O1)[C@](C)(I)CCCC(C)[C@@H]2O (stereo partly specified) | TGI | 26.9 µM |
| CC(C)(CC1(C)NC(=O)NC1=O)OCc1ccccc1 (stereo unspecified) | TGI | > 100 µM |
| COCCOCCOCCC(=O)NC1CC2CCC1(C)C2(C)C (stereo unspecified) | TGI | > 100 µM |
| CC(=O)OC1COC(Oc2c(C)c3c4c(c2O)[C@@H](C)CC[C@@H]4[C@@H](C)C[C@H]3C=C(C)C)C(O)C1O (stereo partly specified) | TGI | 43.7 µM |
| CC(=O)O[C@H]1C[C@H]2[C@@H]([C@H](OC(C)=O)C[C@@H]3CC4(CC[C@@]32C)OOC2(CCCCC2)OO4)[C@@H]2CC[C@H]([C@H](C)CCC(=O)O)[C@@]12C | TGI | 12.8 µM |
| O=C1c2ccccc2/C=C\C(c2ccccc2)=N/N1c1ccccc1Cl | TGI | 60.5 µM |
| CCOc1ccc(/C=C2/C(=O)N=C(N)N=C2N)cc1OCC | TGI | > 100 µM |
| O=C(Nc1nc2c(s1)CCc1c-2c(Br)n(Cc2ccccc2)c1Br)c1ccccc1 | TGI | 23.1 µM |
| O[C@]12c3ccccc3C1CCCCC2N1CCOCC1 (stereo partly specified) | TGI | > 100 µM |
| O=C(O)c1ccccc1CC(Cc1ccccc1)C(=O)O (stereo unspecified) | TGI | > 100 µM |
| NC(=O)C(=O)Cc1nc2ccccc2s1 | TGI | > 100 µM |
| CC(OC(C)(C)C)C(NC(=O)C(N)CCCCNC(=O)OC(C)(C)C)C(=O)NC(Cc1ccccc1)C(=O)O (stereo unspecified) (H-Lys(Boc)-Thr(tBu)-Phe-OH; configuration not given here) | TGI | > 100 µM |
| O=C(CN(/C=C/C(=O)C(F)(F)F)c1ccccc1)c1ccc(F)cc1 | TGI | > 100 µM |

* * *

Measured TGI by item
- Tested on: UACC-257 melanoma
- PROTOCOL_NOTES: NCI tumour cell line growth inhibition, 48 h
MEASUREMENT_KIND: TGI

| MOLECULE | RESULT |
| --- | --- |
| COc1cc2c3c(n(CCCN4CCSCC4)c(=O)c2cc1OC)-c1cc2c(cc1C3=O)OCO2 | > 100 µM |
| CCOC(=O)c1cc2cc(OCc3ccccc3)ccc2[nH]1 | > 100 µM |
| Cc1cc(C)c(S(=O)(=O)N(CCCN)OCCCN)c(C)c1 | > 100 µM |
| O=c1[nH]c(=S)[nH]c2c(C3OC(CO)C(O)C3O)nsc12 (stereo not given) | > 100 µM |
| OC1CSCCSCCCSCCSC1 | > 100 µM |

* * *

- System: SF-268 CNS
- PROTOCOL_NOTES: NCI tumour cell line growth inhibition, 48 h; in the data active means GI50 below about 0.43 µM; inactive means the rest
Outcomes: t for active, f for inactive

| MOLECULE | TEST_SYSTEM | CLASS_NAME |
| --- | --- | --- |
| Cc1n(Cc2ccc3ccccc3n2)cc[n+]1Cc1ccc2ccccc2c1 | SF-268 CNS | f |
| CC(C)C/C(=N\NC(=O)c1ccncc1)c1cc(Cl)ccc1O | SF-268 CNS | t |
| CN(C)c1ccc2c(c1)OC(N)=C(C#N)C2c1ccc2c(c1)CCCN2C (stereo not given) | SF-268 CNS | f |
| CC1=NN(c2nc(N)nc(/C=C\c3ccccc3)n2)C(C)(C)C1 | SF-268 CNS | f |
| c1ccc2c(c1)[O][Sn][O]2 | SF-268 CNS | f |
| COC(=O)C1=Nc2ccc(F)cc2/C1=C/c1sc(=S)[nH]c1O | SF-268 CNS | f |
| O=S(=O)(NCCCNc1nccc(-c2c(-c3cccc(F)c3)nc3occn23)n1)c1cccc2ccccc12 | SF-268 CNS | f |
| CN1CCOCCOCCOc2ccccc2NC(=O)c2nc(cnc2N)-c2ccc(cc2)S1(=O)=O | SF-268 CNS | f |
| Cc1ccc(-c2nc(C(Cl)Cl)nc3cc(C)nn23)cc1 | SF-268 CNS | f |
| CC/C(=C(/c1ccc(/C=C/C(=O)O)cc1)c1ccc2[nH]ncc2c1)c1ccc(F)cc1Cl | SF-268 CNS | f |
